# target_desc: Broad substrate specificity ATP-binding cassette transporter ABCG2 (Homo sapiens)
# Sequence (Q9UNQ0 whole entry): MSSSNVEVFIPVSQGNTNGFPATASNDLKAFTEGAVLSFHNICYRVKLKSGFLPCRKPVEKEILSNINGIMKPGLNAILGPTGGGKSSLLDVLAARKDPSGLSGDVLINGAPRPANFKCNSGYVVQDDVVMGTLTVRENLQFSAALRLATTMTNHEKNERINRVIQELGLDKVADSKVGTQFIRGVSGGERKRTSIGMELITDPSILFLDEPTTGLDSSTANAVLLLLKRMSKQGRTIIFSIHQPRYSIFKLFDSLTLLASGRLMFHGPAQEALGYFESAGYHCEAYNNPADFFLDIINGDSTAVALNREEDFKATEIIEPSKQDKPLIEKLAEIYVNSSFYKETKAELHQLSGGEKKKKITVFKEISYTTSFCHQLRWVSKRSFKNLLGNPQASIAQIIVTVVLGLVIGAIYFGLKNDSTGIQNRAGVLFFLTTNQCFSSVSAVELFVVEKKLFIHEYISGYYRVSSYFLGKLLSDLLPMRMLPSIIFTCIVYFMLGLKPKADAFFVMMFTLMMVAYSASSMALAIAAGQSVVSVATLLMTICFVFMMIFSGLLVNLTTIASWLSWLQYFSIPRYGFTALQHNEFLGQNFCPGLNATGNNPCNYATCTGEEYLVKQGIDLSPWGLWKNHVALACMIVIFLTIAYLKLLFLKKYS
# assay_protocol: Inhibition of ABCG2-mediated mitoxantrone efflux in mitoxantrone-selected human H460 cells after 30 mins by flow cytometric analysis
# Assay type: cell-based
attribute_measured: EC50 (µM)
Report as a plain number; the unit µM is understood.

As a guide, the following entries are already answered.
* COc1ccc2[nH]cc(CCNC(=O)c3cc(=O)c4ccc(OCc5ccc(Br)cc5)cc4o3)c2c1 | 1.54
* COc1ccc2[nH]cc(CCNC(=O)c3cc(=O)c4c(OCc5ccc(Br)cc5)cccc4o3)c2c1 | 0.05
* CN(CCc1c[nH]c2ccccc12)C(=O)c1cc(=O)c2cc(OCc3ccc(Br)cc3)ccc2o1 | 1.67
* O=C(NCc1cn(Cc2ccccc2)nn1)c1cc(=O)c2c(OCc3ccc(Br)cc3)cccc2o1 | 0.5

Field request: EC50 | item: COc1ccc2[nH]cc(CCNC(=O)c3cc(=O)c4cc(OCc5ccc(Br)cc5)ccc4o3)c2c1
0.1
